Each recorded value in this set is attributed to the supplement of paper PMC12340641.

molecular target: IKZF1 (dCK*-IKZF1 fusion in HEK293FT) (UniProt Q13422); assay: inhibition of IKZF1 HTRF signal (DMSO = 0%, pomalidomide 10 uM = 100%); higher = lower IKZF1 protein level; details: compound concentration: 5 uM, overnight (~20 h)
Sequence (Q13422 whole entry, looked up, the tested form may be a part): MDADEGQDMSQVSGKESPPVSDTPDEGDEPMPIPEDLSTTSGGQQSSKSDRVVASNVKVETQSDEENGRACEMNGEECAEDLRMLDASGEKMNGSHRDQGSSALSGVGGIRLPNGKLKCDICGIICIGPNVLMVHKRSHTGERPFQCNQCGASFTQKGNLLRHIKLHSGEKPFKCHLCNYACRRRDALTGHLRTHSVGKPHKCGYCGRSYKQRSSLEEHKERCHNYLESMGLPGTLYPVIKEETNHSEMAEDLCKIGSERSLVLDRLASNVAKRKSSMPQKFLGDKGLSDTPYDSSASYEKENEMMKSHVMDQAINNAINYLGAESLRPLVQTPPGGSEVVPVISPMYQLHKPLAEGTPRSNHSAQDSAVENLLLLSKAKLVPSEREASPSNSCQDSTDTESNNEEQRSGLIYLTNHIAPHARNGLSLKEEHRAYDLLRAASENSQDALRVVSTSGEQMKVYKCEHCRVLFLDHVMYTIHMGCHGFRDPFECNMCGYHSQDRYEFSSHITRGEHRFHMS
Structures can show the parent of a compound that is named as a salt.
readout: inhibition of IKZF1 HTRF signal (%)
State the answer as a number, implicitly in %.

Qu. Missing value: inhibition of IKZF1 HTRF signal, IKZF1 (dCK*-IKZF1 fusion in HEK293FT) (UniProt Q13422), entry `O=C(c1ccc(Nc2nccc(-c3cc4ccccc4s3)n2)cc1)N1CCC(N2CCCC2)CC1` . Fill in?
Ans. -31.3

Qu. Missing value: inhibition of IKZF1 HTRF signal, IKZF1 (dCK*-IKZF1 fusion in HEK293FT) (UniProt Q13422), entry CO[C@H]1/C=C/O[C@@]2(C)Oc3c(C)c(O)c4c(O)c(c5c(c4c3C2=O)=NC2(CCN(CC(C)C)CC2)N=5)NC(=O)C(C)=CC=CC(C)[C@H](O)[C@@H](C)[C@@H](O)[C@@H](C)[C@H](OC(C)=O)[C@@H]1C (stereo partly drawn) [Rifabutin] . Fill in?
Ans. 0.83

Qu. Missing value: inhibition of IKZF1 HTRF signal, IKZF1 (dCK*-IKZF1 fusion in HEK293FT) (UniProt Q13422), entry `COc1cc(CN(CCN)C(=O)c2cccs2)ccc1OCc1ccccc1` . Fill in?
Ans. -24.8

Qu. Missing value: inhibition of IKZF1 HTRF signal, IKZF1 (dCK*-IKZF1 fusion in HEK293FT) (UniProt Q13422), entry O=C1C=Cc2cc(Br)ccc2C1=O [bonaphthone] . Fill in?
Ans. 23

Qu. Missing value: inhibition of IKZF1 HTRF signal, IKZF1 (dCK*-IKZF1 fusion in HEK293FT) (UniProt Q13422), entry C=CC(=O)Nc1cccc(Oc2nc(Nc3ccc(N4CCN(C)CC4)cc3)nc3ccsc23)c1 [Olmutinib] . Fill in?
Ans. -18.2

Qu. Missing value: inhibition of IKZF1 HTRF signal, IKZF1 (dCK*-IKZF1 fusion in HEK293FT) (UniProt Q13422), entry CC(C)CCN1c2nc(Nc3cc(F)c(O)c(F)c3)ncc2N(C)C(=O)C1C (stereo not drawn) . Fill in?
Ans. -50.7

Qu. Missing value: inhibition of IKZF1 HTRF signal, IKZF1 (dCK*-IKZF1 fusion in HEK293FT) (UniProt Q13422), entry `O=C(NCCO[N+](=O)[O-])c1cccnc1` . Fill in?
Ans. -26.3

Qu. Missing value: inhibition of IKZF1 HTRF signal, IKZF1 (dCK*-IKZF1 fusion in HEK293FT) (UniProt Q13422), entry N=c1ccn2c(n1)O[C@H]1[C@H](O)[C@@H](CO)O[C@H]12 [Cyclocytidine HCl] . Fill in?
Ans. -19.3
